- condition label: 353.15 K; 101.33 kPa; Liquid; Vibrating tube method
± gives the expanded uncertainty stated by the source.
Provide the reported mass density of each item.
Don't forget the unit after the number, please.

INSERT INTO assay_data (compound, assay_metric, result) VALUES
  ('C[C@H](N)C(=O)[O-].C[N+](C)(C)CCO [2-hydroxy-N,N,N-trimethylethanaminium L-alaninate]', 'mass density', '1081.51 ± 2 kg/m3'),
  ('C[N+](C)(C)CCO.N[C@@H](CO)C(=O)[O-] [2-hydroxy-N,N,N-trimethylethanaminium L-serinate]', 'mass density', '1159.37 ± 2 kg/m3'),
  ('C[N+](C)(C)CCO.NCC(=O)[O-] [2-hydroxy-N,N,N-trimethylethanaminium glycinate]', 'mass density', '1114.83 ± 2 kg/m3'),
  ('C[N+](C)(C)CCO.O=C([O-])[C@@H]1CCCN1 [2-hydroxy-N,N,N-trimethylethanaminium L-prolinate]', 'mass density', '1089.39 ± 2 kg/m3');

Consider the additional compound presented here.
Recorded mass density (compound C[N+](C)(C)CCO.NCCC(=O)[O-] [2-hydroxy-N,N,N-trimethylethanaminium β-alaninate] ): 1089.6 ± 2 kg/m3

###

- condition label: 338.15 K; 101.33 kPa; Liquid; Vibrating tube method
Provide the reported mass density of each item.
Numbers only, in kg/m3.

INSERT INTO assay_data (compound, measurement_units, recorded_number) VALUES
  ('C[N+](C)(C)CCO.O=C([O-])[C@@H]1CCCN1 [2-hydroxy-N,N,N-trimethylethanaminium L-prolinate]', 'kg/m3', 1097.81),
  ('C[N+](C)(C)CCO.N[C@@H](CO)C(=O)[O-] [2-hydroxy-N,N,N-trimethylethanaminium L-serinate]', 'kg/m3', 1168.38),
  ('C[N+](C)(C)CCO.NCC(=O)[O-] [2-hydroxy-N,N,N-trimethylethanaminium glycinate]', 'kg/m3', 1122.93);

For each entry beneath this line, provide reported mass density.
1. C[C@H](N)C(=O)[O-].C[N+](C)(C)CCO [2-hydroxy-N,N,N-trimethylethanaminium L-alaninate]
2. C[N+](C)(C)CCO.NCCC(=O)[O-] [2-hydroxy-N,N,N-trimethylethanaminium β-alaninate]

1. 1089.85
2. 1097.83

###

Provide the reported refractive index of each item.
- protocol notes: refractive index (Na D-line) (dimensionless)
- condition label: 308.15 K; 101.33 kPa; Liquid; Standard Abbe refractometry
One number for each entry.

These solved cases illustrate the format of a correct answer.
INSERT INTO measurements (compound, recorded_number) VALUES
  ('C[N+](C)(C)CCO.NCCC(=O)[O-] [2-hydroxy-N,N,N-trimethylethanaminium β-alaninate]', 1.5294),
  ('C[N+](C)(C)CCO.N[C@@H](CO)C(=O)[O-] [2-hydroxy-N,N,N-trimethylethanaminium L-serinate]', 1.5408),
  ('C[N+](C)(C)CCO.NCC(=O)[O-] [2-hydroxy-N,N,N-trimethylethanaminium glycinate]', 1.5204);

For each entry beneath this line, provide reported refractive index.
1. C[C@H](N)C(=O)[O-].C[N+](C)(C)CCO [2-hydroxy-N,N,N-trimethylethanaminium L-alaninate]
2. C[N+](C)(C)CCO.O=C([O-])[C@@H]1CCCN1 [2-hydroxy-N,N,N-trimethylethanaminium L-prolinate]

1.5118
1.539

###

- condition label: 313.15 K; 101.33 kPa; Liquid; Cone and plate viscometry
Provide the reported log10(viscosity) of each item.
Note: values are log10 of viscosity expressed in mPa·s.

These solved cases illustrate the format of a correct answer.
INSERT INTO results (compound, assay_metric, recorded_number) VALUES
  ('C[N+](C)(C)CCO.NCCC(=O)[O-] [2-hydroxy-N,N,N-trimethylethanaminium β-alaninate]', 'log10(viscosity)', 3.06),
  ('C[N+](C)(C)CCO.NCC(=O)[O-] [2-hydroxy-N,N,N-trimethylethanaminium glycinate]', 'log10(viscosity)', 1.70);

For each entry beneath this line, provide reported log10(viscosity).
1. C[N+](C)(C)CCO.N[C@@H](CO)C(=O)[O-] [2-hydroxy-N,N,N-trimethylethanaminium L-serinate]
2. C[C@H](N)C(=O)[O-].C[N+](C)(C)CCO [2-hydroxy-N,N,N-trimethylethanaminium L-alaninate]
3. C[N+](C)(C)CCO.O=C([O-])[C@@H]1CCCN1 [2-hydroxy-N,N,N-trimethylethanaminium L-prolinate]

[3.34, 1.95, 3.18]

###

Provide the reported mass density of each item.
- condition label: 323.15 K; 101.33 kPa; Liquid; Vibrating tube method
Answers are plain numbers, in kg/m3.

These solved cases illustrate the format of a correct answer.
INSERT INTO measurements (compound, assay_metric, recorded_number) VALUES
  ('C[C@H](N)C(=O)[O-].C[N+](C)(C)CCO [2-hydroxy-N,N,N-trimethylethanaminium L-alaninate]', 'mass density', 1098.37),
  ('C[N+](C)(C)CCO.NCCC(=O)[O-] [2-hydroxy-N,N,N-trimethylethanaminium β-alaninate]', 'mass density', 1106.2);

For each entry beneath this line, provide reported mass density.
1. C[N+](C)(C)CCO.NCC(=O)[O-] [2-hydroxy-N,N,N-trimethylethanaminium glycinate]
2. C[N+](C)(C)CCO.N[C@@H](CO)C(=O)[O-] [2-hydroxy-N,N,N-trimethylethanaminium L-serinate]

1131.22
1176.87

Recorded mass density (compound C[N+](C)(C)CCO.O=C([O-])[C@@H]1CCCN1 [2-hydroxy-N,N,N-trimethylethanaminium L-prolinate] ): 1106.69

###

- condition label: 308.15 K; 101.33 kPa; Liquid; Vibrating tube method
Provide the reported mass density of each item.
Answers are plain numbers, in kg/m3.

INSERT INTO results (compound, recorded_number) VALUES
  ('C[C@H](N)C(=O)[O-].C[N+](C)(C)CCO [2-hydroxy-N,N,N-trimethylethanaminium L-alaninate]', 1107.01),
  ('C[N+](C)(C)CCO.NCCC(=O)[O-] [2-hydroxy-N,N,N-trimethylethanaminium β-alaninate]', 1114.55),
  ('C[N+](C)(C)CCO.O=C([O-])[C@@H]1CCCN1 [2-hydroxy-N,N,N-trimethylethanaminium L-prolinate]', 1115.35),
  ('C[N+](C)(C)CCO.NCC(=O)[O-] [2-hydroxy-N,N,N-trimethylethanaminium glycinate]', 1139.43);

Consider the additional compound presented here.
Recorded mass density (compound C[N+](C)(C)CCO.N[C@@H](CO)C(=O)[O-] [2-hydroxy-N,N,N-trimethylethanaminium L-serinate] ): 1185.79

###

Provide the reported mass density of each item.
- condition label: 333.15 K; 101.33 kPa; Liquid; Vibrating tube method
Answers are plain numbers, in kg/m3.

These solved cases illustrate the format of a correct answer.
INSERT INTO measurements (compound, measurement_units, recorded_number) VALUES
  ('C[N+](C)(C)CCO.NCC(=O)[O-] [2-hydroxy-N,N,N-trimethylethanaminium glycinate]', 'kg/m3', 1125.7),
  ('C[N+](C)(C)CCO.NCCC(=O)[O-] [2-hydroxy-N,N,N-trimethylethanaminium β-alaninate]', 'kg/m3', 1100.63),
  ('C[C@H](N)C(=O)[O-].C[N+](C)(C)CCO [2-hydroxy-N,N,N-trimethylethanaminium L-alaninate]', 'kg/m3', 1092.69),
  ('C[N+](C)(C)CCO.N[C@@H](CO)C(=O)[O-] [2-hydroxy-N,N,N-trimethylethanaminium L-serinate]', 'kg/m3', 1171.2);

Consider the additional compound presented here.
Recorded mass density (compound C[N+](C)(C)CCO.O=C([O-])[C@@H]1CCCN1 [2-hydroxy-N,N,N-trimethylethanaminium L-prolinate] ): 1100.61

###

- condition label: 303.15 K; 101.33 kPa; Liquid; conductivity meter (DDJS-308A)
Please assign criterion not met whenever electrical conductivity is at or above 0.006 S/m, and criterion met whenever it is below.

INSERT INTO results (molecule, category) VALUES
  ('C[N+](C)(C)CCO.N[C@@H](CO)C(=O)[O-] [2-hydroxy-N,N,N-trimethylethanaminium L-serinate]', 'criterion met'),
  ('C[N+](C)(C)CCO.NCC(=O)[O-] [2-hydroxy-N,N,N-trimethylethanaminium glycinate]', 'criterion not met'),
  ('C[C@H](N)C(=O)[O-].C[N+](C)(C)CCO [2-hydroxy-N,N,N-trimethylethanaminium L-alaninate]', 'criterion met'),
  ('C[N+](C)(C)CCO.O=C([O-])[C@@H]1CCCN1 [2-hydroxy-N,N,N-trimethylethanaminium L-prolinate]', 'criterion met');

Okay, now this molecule:
Dear reviewer, please state whether C[N+](C)(C)CCO.NCCC(=O)[O-] [2-hydroxy-N,N,N-trimethylethanaminium β-alaninate] has electrical conductivity strictly beneath 0.006 S/m.
criterion met

###

- condition label: 353.15 K; 101.33 kPa; Liquid; Cone and plate viscometry
assay metric: log10 of viscosity (log10 of the value in mPa·s)
Note: values are log10 of viscosity expressed in mPa·s.

INSERT INTO measurements (compound, recorded_number) VALUES
  ('C[C@H](N)C(=O)[O-].C[N+](C)(C)CCO [2-hydroxy-N,N,N-trimethylethanaminium L-alaninate]', 0.64),
  ('C[N+](C)(C)CCO.N[C@@H](CO)C(=O)[O-] [2-hydroxy-N,N,N-trimethylethanaminium L-serinate]', 1.96),
  ('C[N+](C)(C)CCO.NCCC(=O)[O-] [2-hydroxy-N,N,N-trimethylethanaminium β-alaninate]', 1.75),
  ('C[N+](C)(C)CCO.NCC(=O)[O-] [2-hydroxy-N,N,N-trimethylethanaminium glycinate]', 0.54);

Consider the additional compound presented here.
Recorded log10 of viscosity (compound C[N+](C)(C)CCO.O=C([O-])[C@@H]1CCCN1 [2-hydroxy-N,N,N-trimethylethanaminium L-prolinate] ): 1.53
